- system-name: HLA-A*0301 (Human)
- measurement-context: remark: other sources report otherwise
test-readout: binding affinity ratio (IC50 of standard peptide/IC50 of test peptide)

Worked cases, binding affinity ratio (IC50 of standard peptide/IC50 of test peptide) given:
RTEEENLRKK [p53 peptide … (position 283, 10 amino acids)] :: 3.3
SSCMGGMNRR [p53 peptide … (position 240, 10 amino acids)] :: 0.0001
TSRHKKLMFK [p53 peptide … (position 377, 10 amino acids)] :: 0.05
RTEEENLRK [p53 peptide … (position 283, 9 amino acids)] :: 0.0015
RVRAMAIYK [p53 peptide … (position 156, 9 amino acids)] :: 1.5

[1] SSCMGGMNR [p53 peptide … (position 240, 9 amino acids)]
[2] VTCTYSPALNK [p53 peptide … (position 122, 11 amino acids)]
Incoming: Hi there! Just curious which has the higher binding affinity ratio (IC50 of standard peptide/IC50 of test peptide) between 1 and 2 . The response must carry the label of the picked entry.
Outgoing: 2
